# studySystem: SARS-CoV-2 S1+S2 (40589-V08B1, Sino Biological) (SARS-CoV-2, UniProt P0DTC2 16-1213)
# protocol: ELISA on coated protein, anti-human IgG-HRP; AUC of the OD
readoutLabel: Binding AUC
Just the number, please, no unit attached.

Query: What Binding AUC value was documented for this binder, 1242C6 (antibody, V domains shown, Recombinant human IgG1) VH: EVQLVQSGAEVKKPGASVKVSCKASGFTFSDYYMHWVRQAPRQGLEWMGLINPSGSGTAYAQNFQGRVTLTRDTSTSTLYMEMGSLTSDDTAVYYCARMDSSGSYDHWGQGTLVTVSS VL: DIVMTQSPGTLSLSPGDRATLSCRASQTIRISYLAWYQQKPGQAPRLLVYGPSIRATGIPDRFSASGSGTDFTLTISRLEPEDFAVYYCQHYGSSPPRYTFGQGTKLEIK ?
Reply: 25.6
